Target: Adenosine receptor A1 (Homo sapiens)
Sequence (whole entry): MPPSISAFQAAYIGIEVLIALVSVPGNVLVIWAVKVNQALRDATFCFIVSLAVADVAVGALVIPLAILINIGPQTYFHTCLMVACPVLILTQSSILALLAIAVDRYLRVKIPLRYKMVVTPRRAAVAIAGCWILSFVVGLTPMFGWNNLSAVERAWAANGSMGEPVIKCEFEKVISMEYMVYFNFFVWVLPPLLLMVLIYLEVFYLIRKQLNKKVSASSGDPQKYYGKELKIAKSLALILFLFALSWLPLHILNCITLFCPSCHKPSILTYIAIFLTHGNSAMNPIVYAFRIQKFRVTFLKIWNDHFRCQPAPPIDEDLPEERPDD
Test: Displacement of [3H]NECA from human recombinant adenosine A1 receptor expressed in CHO cells at 10 uM by liquid scintillation counting
Type: cell-based
Assign Condition met to entries whose inhibition meets or exceeds 10%; assign Condition not met to the rest.

molecule	assigned_category
CNC(=O)[C@@]12C[C@@H]1[C@@H](n1cnc3c(NCc4cccc(Cl)c4)nc(C#CCCCCc4cn(CCNC(C)=O)nn4)nc31)[C@H](O)[C@@H]2O	Condition met
CNC(=O)[C@@]12C[C@@H]1[C@@H](n1cnc3c(NCc4cccc(Cl)c4)nc(C#CCCCCc4cn(-c5ccc(N)cc5)nn4)nc31)[C@H](O)[C@@H]2O	Condition not met
CNC(=O)[C@@]12C[C@@H]1[C@@H](n1cnc3c(NCc4cccc(Cl)c4)nc(C#CCCC(=O)NCCNC(=O)CCCCCNC(=O)CCCCC4SCC5NC(=O)NC54)nc31)[C@H](O)[C@@H]2O (stereo partly specified)	Condition met
CNC(=O)[C@@]12C[C@@H]1[C@@H](n1cnc3c(NCc4cccc(Cl)c4)nc(C#CCCC(=O)NCCNC(=O)CCCCC4SCC5NC(=O)NC54)nc31)[C@H](O)[C@@H]2O (stereo partly specified)	Condition not met
CNC(=O)[C@@]12C[C@@H]1[C@@H](n1cnc3c(NCc4cccc(Cl)c4)nc(-c4nnn(-c5ccc(N=C=S)cc5)c4CCCCc4cn(-c5ccc(N=C=S)cc5)nn4)nc31)[C@H](O)[C@@H]2O	Condition not met
C#CCCCCC#Cc1nc(NCc2cccc(Cl)c2)c2ncn([C@H]3[C@H](O)[C@H](O)[C@]4(C(=O)NC)C[C@H]34)c2n1	Condition met
CNC(=O)[C@@]12C[C@@H]1[C@@H](n1cnc3c(NCc4cccc(Cl)c4)nc(C#CCCCCc4cn(CCCCN)nn4)nc31)[C@H](O)[C@@H]2O	Condition met
C#CCCCC#Cc1nc(NCc2cccc(Cl)c2)c2ncn([C@@H]3[C@H](O)[C@H](O)[C@]4(C(=O)NC)C[C@H]34)c2n1	Condition met
CCN1\C(=C/C=C/C=C/C2=[N+](CCCCCC(=O)NCCNC(=O)CCC#Cc3nc(NCc4cccc(Cl)c4)c4ncn([C@H]5[C@H](O)[C@H](O)[C@]6(C(=O)NC)C[C@H]56)c4n3)c3ccc(S(=O)(=O)[O-])cc3C2(C)C)C(C)(C)c2cc(S(=O)(=O)O)ccc21	Condition met
CNC(=O)[C@@]12C[C@@H]1[C@@H](n1cnc3c(NCc4cccc(Cl)c4)nc(C#CCCCCc4cn(-c5ccc(N=C=S)cc5)nn4)nc31)[C@H](O)[C@@H]2O	Condition not met
CNC(=O)[C@@]12C[C@@H]1[C@@H](n1cnc3c(NCc4cccc(Cl)c4)nc(C#CCCCCc4cn(CCCCNC(C)=O)nn4)nc31)[C@H](O)[C@@H]2O	Condition met

Data origin: ChEMBL document CHEMBL1159060
